B1: CPEB3 Ribozyme (parent)
chain: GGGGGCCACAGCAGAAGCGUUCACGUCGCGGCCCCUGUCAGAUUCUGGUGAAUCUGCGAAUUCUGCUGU

# Variants of: B1
# Test: self-cleavage, relative activity (ratio to wild type); higher = more cleavage; co-transcriptional
Category scheme (self-cleavage): bin A (below 0.2), bin B (0.2 to below 0.7), bin C (0.7 or more)

> print(dat)
   mutation.string  qualitative.label
1         G4U C24A              bin A
2        U20G U43C              bin A
3         G3U G25C              bin A
4        C39U U64G              bin C
5        A23C C54U              bin C

Class label required: G2U C29G bin A

GET /class?item= U26A C66U bin C

Tag the class for G19U A59G bin B

# bin label for C34U U44C bin C

# bin lookup: classify G3A G17C by its self-cleavage bin A

Just checking, what class would you give G3C C32A here? bin A

Hey, which category is A10U G17U in, do you know? bin B
